# testTarget: PDE9A isoform b (Homo sapiens, UniProt O76083)
# Construct: they are full-length with N-terminal GST tag; GST (N)
# Sequence (O76083 1-533 isoform O76083-2): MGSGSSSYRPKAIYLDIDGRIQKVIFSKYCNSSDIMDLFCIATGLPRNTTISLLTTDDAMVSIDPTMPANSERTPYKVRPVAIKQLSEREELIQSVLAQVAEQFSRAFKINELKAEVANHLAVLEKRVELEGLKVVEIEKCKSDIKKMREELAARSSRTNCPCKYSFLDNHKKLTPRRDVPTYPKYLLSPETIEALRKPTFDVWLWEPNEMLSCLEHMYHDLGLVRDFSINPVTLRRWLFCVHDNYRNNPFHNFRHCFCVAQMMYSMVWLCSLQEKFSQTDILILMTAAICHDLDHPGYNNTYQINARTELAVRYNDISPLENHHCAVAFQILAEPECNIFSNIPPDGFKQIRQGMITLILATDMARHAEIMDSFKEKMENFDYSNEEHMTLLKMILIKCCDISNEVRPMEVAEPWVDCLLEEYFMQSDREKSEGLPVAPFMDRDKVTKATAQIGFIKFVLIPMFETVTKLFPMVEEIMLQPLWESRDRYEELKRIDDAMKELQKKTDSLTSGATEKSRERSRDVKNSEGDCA
# assayProtocol: PDE enzyme activity assay (HTRF cGMP), PDE9A
# conditionLabel: recombinant enzyme; read-out: PDE9A inhibition (IC50)
The compounds listed here are annotated with their IC50.

{"compound": "O=C(NO)c1cnc(N2CCC(CN3CC(=O)N4[C@H](c5ccc6c(c5)OCO6)c5[nH]c6ccccc6c5C[C@@H]4C3=O)CC2)nc1", "testTarget": "PDE9A isoform b (Homo sapiens, UniProt O76083)", "result": "> 10000 nM"}
{"compound": "C[C@@H]1CN(Cc2ncc(-c3ccc(C(=O)NO)cc3)cn2)C[C@H]1c1nc2c(cnn2C2CCOCC2)c(=O)[nH]1 (racemic)", "testTarget": "PDE9A isoform b (Homo sapiens, UniProt O76083)", "result": "< 10 nM"}
{"compound": "CCCc1nc(C)c2c(=O)[nH]c(-c3cc(S(=O)(=O)Nc4ccc(/C=C/C(=O)NO)cc4)ccc3OCC)nn12", "testTarget": "PDE9A isoform b (Homo sapiens, UniProt O76083)", "result": "1000 to 10000 nM"}
{"compound": "CC(c1nc2c(cnn2C2CCOCC2)c(=O)[nH]1)N1CC(OC2CCN(c3ncc(C(=O)NO)cn3)CC2)C1 (stereo not drawn)", "testTarget": "PDE9A isoform b (Homo sapiens, UniProt O76083)", "result": "10 to 1000 nM"}

Query: Answer with the recorded IC50 of CCCc1nc(C)c2c(=O)[nH]c(-c3cc(S(=O)(=O)N4CCN(c5ncc(C(=O)NO)cn5)CC4)ccc3OCC)nn12 only.
Result: > 10000 nM

Query: Answer with the recorded IC50 of CCCc1nn(C)c2c(=O)[nH]c(-c3cc(S(=O)(=O)NC4CCN(c5ncc(C(=O)NO)cn5)CC4)ccc3OCC)nc12 only.
Result: 1000 to 10000 nM

###

# testTarget: PDE5A (Homo sapiens, UniProt O76074)
# Construct: they are full-length with N-terminal GST tag; GST (N); purchased BPS Biosciences 60050; host or cells: baculovirus infected Sf9 cells
# assayProtocol: PDE enzyme activity assay (HTRF cGMP), PDE5A
# Format: biochemical
# conditionLabel: recombinant enzyme; read-out: PDE5A1 inhibition (IC50)
pIC50: −log10 of the molar value.
The compounds listed here are annotated with their pIC50.

Would you please look over these solved cases?
{"compound": "CCCc1nn(C)c2c(=O)[nH]c(-c3cc(CC4CC(C(=O)NO)C4)ccc3OCC)nc12 (centres unmarked) [Example 1-63]", "testTarget": "PDE5A (Homo sapiens, UniProt O76074)", "pIC50": "6.00 to 8.00"}
{"compound": "CCCc1nn(C)c2c(=O)[nH]c(-c3cc(C4CC(C(=O)NO)C4)ccc3OCC)nc12 (racemic) [Example 1-82]", "testTarget": "PDE5A (Homo sapiens, UniProt O76074)", "pIC50": "6.00 to 8.00"}
{"compound": "CCCc1nn(C)c2c(=O)[nH]c(-c3cc(N4CCC(C(=O)NO)CC4)ccc3OCC)nc12", "testTarget": "PDE5A (Homo sapiens, UniProt O76074)", "pIC50": "6.00 to 8.00"}
{"compound": "CCCc1nn(C)c2c(=O)[nH]c(-c3cc(C4CC(C(=O)NO)C4)ccc3OCC)nc12 (centres unmarked) [Example 1-85]", "testTarget": "PDE5A (Homo sapiens, UniProt O76074)", "pIC50": "6.00 to 8.00"}
{"compound": "CCCc1nn(C)c2c(=O)[nH]c(-c3cc(Cc4ccc(C(=O)NO)c(F)c4)ccc3OCC)nc12", "testTarget": "PDE5A (Homo sapiens, UniProt O76074)", "pIC50": "6.00 to 8.00"}
{"compound": "CCCc1nn(C)c2c(=O)[nH]c(-c3cccc(OC4CCN(c5ncc(C(=O)NO)cn5)CC4)c3)nc12", "testTarget": "PDE5A (Homo sapiens, UniProt O76074)", "pIC50": "5.00 to 6.00"}
{"compound": "CCCc1nn(C)c2c(=O)[nH]c(-c3cc(C4CCC(C(=O)NO)CC4)ccc3OCC)nc12 (centres unmarked) [Example 1-41]", "testTarget": "PDE5A (Homo sapiens, UniProt O76074)", "pIC50": "6.00 to 8.00"}
{"compound": "CCCc1nn(C)c2c(=O)[nH]c(-c3cc(CC4CCN(c5ccc(C(=O)NO)cn5)CC4)ccc3OCC)nc12", "testTarget": "PDE5A (Homo sapiens, UniProt O76074)", "pIC50": "6.00 to 8.00"}
{"compound": "CCCc1nn(C)c2c(=O)[nH]c(-c3cc(S(=O)(=O)N4CCN(CCCC(=O)NO)CC4)ccc3OCC)nc12", "testTarget": "PDE5A (Homo sapiens, UniProt O76074)", "pIC50": "> 8.00"}
{"compound": "O=C(NO)c1cnc(N2CCC(N3CC(=O)N4C(Cc5c([nH]c6ccccc56)C4c4ccc5c(c4)OCO5)C3=O)CC2)nc1 (racemic)", "testTarget": "PDE5A (Homo sapiens, UniProt O76074)", "pIC50": "6.00 to 8.00"}

Query: Answer with the recorded pIC50 of CCCc1nn(C)c2c(=O)[nH]c(-c3cc(NC4CCN(c5ncc(C(=O)NO)cn5)CC4)ccc3OCC)nc12 only.
Result: > 8.00

Query: Answer with the recorded pIC50 of CCCc1nn(C)c2c(=O)[nH]c(-c3cc(S(=O)(=O)N4CCN(Cc5ccc(/C=C/C(=O)NO)cc5)CC4)ccc3OCC)nc12 only.
Result: > 8.00

Query: Answer with the recorded pIC50 of CCCc1nn(C)c2c(=O)[nH]c(-c3cc(N4CCCC5(CCC(C(=O)NO)CC5)C4)ccc3OCC)nc12 (centres unmarked) only.
Result: 6.00 to 8.00

Query: Answer with the recorded pIC50 of O=C(/C=C/c1ccc(CN2CCC(N3CC(=O)N4[C@H](c5ccc6c(c5)OCO6)c5[nH]c6ccccc6c5C[C@@H]4C3=O)CC2)cc1)NO only.
Result: 6.00 to 8.00

###

# testTarget: PDE4A1 (Homo sapiens, UniProt P27815)
# Construct: they are full-length with N-terminal GST tag; GST (N); purchased BPS Biosciences 60040; host or cells: baculovirus infected Sf9 cells
# Sequence (P27815 1-647 isoform P27815-4): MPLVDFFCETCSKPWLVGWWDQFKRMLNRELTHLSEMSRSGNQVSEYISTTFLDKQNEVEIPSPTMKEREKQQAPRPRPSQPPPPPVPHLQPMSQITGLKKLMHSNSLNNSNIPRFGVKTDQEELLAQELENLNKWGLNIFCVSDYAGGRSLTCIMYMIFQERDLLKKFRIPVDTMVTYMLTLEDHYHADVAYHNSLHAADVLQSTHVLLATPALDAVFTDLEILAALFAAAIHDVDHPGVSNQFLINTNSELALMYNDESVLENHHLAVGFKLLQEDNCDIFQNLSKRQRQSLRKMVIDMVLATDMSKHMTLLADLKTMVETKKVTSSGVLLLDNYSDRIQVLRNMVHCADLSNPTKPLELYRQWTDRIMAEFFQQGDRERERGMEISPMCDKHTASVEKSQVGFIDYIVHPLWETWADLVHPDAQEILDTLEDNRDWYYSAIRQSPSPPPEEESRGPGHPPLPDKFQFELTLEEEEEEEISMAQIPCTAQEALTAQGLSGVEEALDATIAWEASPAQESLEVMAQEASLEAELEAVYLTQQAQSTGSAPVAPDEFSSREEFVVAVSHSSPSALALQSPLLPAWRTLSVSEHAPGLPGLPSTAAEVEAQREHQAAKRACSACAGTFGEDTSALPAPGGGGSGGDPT
# assayProtocol: PDE enzyme activity assay (HTRF cGMP), PDE4A1
# Format: biochemical
# conditionLabel: read-out: PDE4A1 inhibition (IC50)
readout: IC50

Query: Answer with the recorded IC50 of COc1ccc(N(C(=O)c2c(Cl)cncc2Cl)C2CCN(c3ncc(C(=O)NO)cn3)CC2)cc1OC1CCCC1 only.
Result: > 10 µM

###

# testTarget: HDAC2 (Homo sapiens)
# Construct: NM_001527; Cat. #50002) is full-length with C-terminal his tag; His (C); purchased BPS Biosciences 50002; host or cells: baculovirus infected Sf9 cells
# Sequence (Q92769 whole entry): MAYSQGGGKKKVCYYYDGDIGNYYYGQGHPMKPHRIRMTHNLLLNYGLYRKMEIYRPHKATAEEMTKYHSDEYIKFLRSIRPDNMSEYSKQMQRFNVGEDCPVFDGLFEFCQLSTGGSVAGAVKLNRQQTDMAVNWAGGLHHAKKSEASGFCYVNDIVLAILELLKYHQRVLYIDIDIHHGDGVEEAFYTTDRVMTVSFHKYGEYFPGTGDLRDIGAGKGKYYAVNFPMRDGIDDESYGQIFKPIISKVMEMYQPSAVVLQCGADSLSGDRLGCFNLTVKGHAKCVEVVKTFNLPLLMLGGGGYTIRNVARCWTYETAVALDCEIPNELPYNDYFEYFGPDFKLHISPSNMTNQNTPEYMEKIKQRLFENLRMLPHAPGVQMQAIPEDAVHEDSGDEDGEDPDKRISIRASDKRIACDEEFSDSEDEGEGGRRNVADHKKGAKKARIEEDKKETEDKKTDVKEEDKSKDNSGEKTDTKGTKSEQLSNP
# assayProtocol: HDAC enzyme activity assay (fluorogenic substrate), HDAC2
# Assay type: biochemical
# conditionLabel: recombinant enzyme; read-out: HDAC2 inhibition (IC50)
readout: IC50

{"compound": "CCCc1nn(C)c2c(=O)[nH]c(-c3cc(S(=O)(=O)N4CCN(Cc5ccc(/C=C/C(=O)NO)cc5)CC4)ccc3OCC)nc12", "testTarget": "HDAC2 (Homo sapiens)", "result": "1000 to 10000 nM"}
{"compound": "CCCc1nn(C)c2c(=O)[nH]c(-c3cc(C(=O)NO)ccc3OCC)nc12", "testTarget": "HDAC2 (Homo sapiens)", "result": "> 10000 nM"}
{"compound": "CCCc1nn(C)c2c(=O)[nH]c(-c3cc(Cc4ccc(C(=O)NO)cc4OC)ccc3OCC)nc12", "testTarget": "HDAC2 (Homo sapiens)", "result": "> 10000 nM"}
{"compound": "CCCc1nn(C)c2c(=O)[nH]c(-c3cc(S(=O)(=O)Nc4ccc(/C=C/C(=O)NO)cc4)ccc3OCC)nc12", "testTarget": "HDAC2 (Homo sapiens)", "result": "10 to 1000 nM"}
{"compound": "CCCc1nn(C)c2c(=O)[nH]c(-c3cc(C4CCC(C(=O)NO)CC4)ccc3OCC)nc12 (stereo not drawn) [Example 1-40]", "testTarget": "HDAC2 (Homo sapiens)", "result": "> 10000 nM"}

Query: Answer with the recorded IC50 of CC(c1nc2c(cnn2C2CCOCC2)c(=O)[nH]1)N1CC(Cc2ccc(C(=O)NO)cc2)C1 (stereo not drawn) only.
Result: 1000 to 10000 nM

Query: Answer with the recorded IC50 of CCCc1nn(C)c2c(=O)[nH]c(-c3cc(Cc4ccc(C(=O)NO)s4)ccc3OCC)nc12 only.
Result: 1000 to 10000 nM

Query: Answer with the recorded IC50 of CC(c1nc2c(cnn2C2CCOCC2)c(=O)[nH]1)N1CC(Cc2ccc(C(=O)NO)s2)C1 (stereo not drawn) only.
Result: 1000 to 10000 nM

Query: Answer with the recorded IC50 of CCCc1nn(C)c2c(=O)[nH]c(-c3cc(C4CCC(CC(=O)NO)CC4)ccc3OCC)nc12 (stereo not drawn) only.
Result: > 10000 nM

Query: Answer with the recorded IC50 of CCCc1nn(C)c2c(=O)[nH]c(-c3cc(CC4CCN(c5ncc(C(=O)NO)cn5)CC4)ccc3OCC)nc12 only.
Result: 10 to 1000 nM

Query: Answer with the recorded IC50 of CCCc1nn(C)c2c(=O)[nH]c(-c3cc(C4=CCC(CC(=O)NO)CC4)ccc3OCC)nc12 (stereo not drawn) only.
Result: > 10000 nM

Query: Answer with the recorded IC50 of CCCc1nn(C)c2c(=O)[nH]c(-c3cc(N(C)C4CCN(c5ncc(C(=O)NO)cn5)CC4)ccc3OCC)nc12 only.
Result: 10 to 1000 nM

Query: Answer with the recorded IC50 of CCCc1nn(C)c2c(=O)[nH]c(-c3cc(CN4CCN(c5ncc(C(=O)NO)cn5)CC4)ccc3OCC)nc12 only.
Result: 10 to 1000 nM

Query: Answer with the recorded IC50 of CCCc1nc(C)c2c(=O)[nH]c(-c3cc(Cc4ccc(/C=C/C(=O)NO)cc4)ccc3OCC)nn12 only.
Result: 1000 to 10000 nM

Query: Answer with the recorded IC50 of CC1CN(CC2CC(C(=O)NO)C2)CC1c1nc2c(cnn2C2CCOCC2)c(=O)[nH]1 (racemic) only.
Result: > 10000 nM
